The reported measurements were obtained from paper PMC7692337.

I'd be grateful if you could share measured Rf w Verapamil for these entries.
Tested on: SW1573/Pgp
assay overview: P-glycoprotein assay, line overexpressing P-gp
Assay type: cell-based, human
experimental parameters: ratio between GI50 values in SW1573/PGP and SW1573 cells, with verapamil
Give only the figure.

Given N#C[Se]CCc1ccc2c(c1)OCO2 [Compound 36] , respond with its Rf w Verapamil. 1.7

Given O=C(CC[Se][Se]CCC(=O)NCCc1ccc(O)c(O)c1)NCCc1ccc(O)c(O)c1 [Compound 15] , respond with its Rf w Verapamil. 1.1

Given c1cc2c(cc1C[Se][Se]Cc1ccc3c(c1)OCO3)OCO2 [Compound 39] , respond with its Rf w Verapamil. 2.0

Given CC[C@]1(O)C[C@@H]2CN(CCc3c([nH]c4ccccc34)[C@@](C(=O)OC)(c3cc4c(cc3OC)N(C)[C@H]3[C@@](O)(C(=O)OC)[C@H](OC(C)=O)[C@]5(CC)C=CCN6CC[C@]43[C@@H]65)C2)C1 [VB, vinblastine, reference compound] , respond with its Rf w Verapamil. 1.3

Given c1ccc(C[Se]CCc2ccc3c(c2)OCO3)cc1 [Compound 38] , respond with its Rf w Verapamil. 1.6

Given CC(=O)O[C@H]1C(=O)[C@@]2(C)[C@H]([C@H](OC(=O)c3ccccc3)[C@]3(O)C[C@H](OC(=O)[C@H](O)[C@@H](NC(=O)c4ccccc4)c4ccccc4)C(C)=C1C3(C)C)[C@]1(OC(C)=O)CO[C@@H]1C[C@@H]2O [PTX, paclitaxel, reference compound] , respond with its Rf w Verapamil. 2.6

Given c1cc2c(cc1CC[Se][Se]CCc1ccc3c(c1)OCO3)OCO2 [Compound 40] , respond with its Rf w Verapamil. 2.5
